Measured IC50 by item
system: Plasmodium falciparum; assay: Antiplasmodial activity against chloroquine-resistant Plasmodium falciparum Dd2 assessed as parasite-specific LDH release after 72 hrs by Malstat assay; type: functional, organism-based; conditions: Dd2, 72 h
Metric: IC50 (µM)

>>> test_result("CC(C)(CN1C(=O)c2cccc3cccc(c23)C1=O)C[N+](C)(C)CCCCCCBr")
0.89
>>> test_result("CC(C)(CN1C(=O)c2cccc3c(N)ccc(c23)C1=O)C[N+](C)(C)CCCCCC[N+](C)(C)CC(C)(C)CN1C(=O)c2cccc3c(N)ccc(c23)C1=O")
7.39
>>> test_result("CCC[N+](C)(C)CC(C)(C)CN1C(=O)c2cccc3cccc(c23)C1=O")
8.11

Cited source: ChEMBL document CHEMBL1158566
